These measurements were taken from patent US20150105281A1.

# System: JEG
# Protocol notes: Cell viability (WST-1) with 5-aza-dC at increasing doses
# Format: cell-based, human
# Recorded conditions: Homo sapiens, 96 h, read-out: Dose B (5-aza-dC concentration at the 50% inhibition of cell viability, IC 50)
Assay endpoint: pIC50
// pIC50 here means minus log10 of the molar concentration (mol/L)

pIC50 recorded for this compound, `Nc1ncn([C@H]2C[C@H](O)[C@@H](CO)O2)c(=O)n1` , is 5.30

---

# Tested on: HT1376
# Protocol notes: Cell viability (WST-1) with 5-aza-dC at increasing doses
# Assay type: cell-based, human
# Recorded conditions: Homo sapiens, HT-1376, 96 h, read-out: Dose B (5-aza-dC concentration at the 50% inhibition of cell viability, IC 50)
Assay endpoint: pIC50
// pIC50 here means minus log10 of the molar concentration (mol/L)

pIC50 recorded for this compound, Nc1ncn([C@H]2C[C@H](O)[C@@H](CO)O2)c(=O)n1 [5-aza-dC, 5-aza-2′ deoxycytidine] , is 5.20
